TARGET_DESC: Phospholipid hydroperoxide glutathione peroxidase GPX4 (Homo sapiens) (UniProt P36969)
Sequence (P36969 whole entry, looked up): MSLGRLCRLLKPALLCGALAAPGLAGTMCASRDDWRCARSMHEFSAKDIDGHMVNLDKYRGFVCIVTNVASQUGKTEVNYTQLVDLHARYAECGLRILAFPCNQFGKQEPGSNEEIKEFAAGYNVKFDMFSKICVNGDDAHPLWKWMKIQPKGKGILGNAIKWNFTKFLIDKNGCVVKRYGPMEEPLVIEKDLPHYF
MEASUREMENT_NOTES: Primary qHTS Assay for Inhibitors of Recombinant Selenoprotein Glutathione Peroxidase 4 (GPX4) (AID 1845192); note: nearly all actives have a fitted effect of over 65% in size
EXPERIMENTAL_CONTEXT: recombinant GPX4, GR-coupled NADPH fluorescence, 15 min; series mostly up to 50 µM
Inconclusive results are not listed. Activity calls are given as the source filed them. Calls come from the whole dose curve; as a rule, active = well fitted inhibition curve with a large enough effect; inconclusive = small, poorly fitted or top-dose-only effect; inactive = flat fitted curve, though single readings scatter.
MEASUREMENT_LABEL: activity change, negative = inhibition

# input Quick one: activity change, negative = inhibition for O=C(NCc1ccc(OC(F)(F)F)cc1)C1c2ccccc2C(=O)N1C1CCOCC1 (stereo not drawn) ?
# output inactive

# input GET /values?readout=activity change, negative = inhibition&item= C[C@@H]1O[C@@H](O[C@H]2[C@H](OC(=O)C34CCC(C)(C)CC3C3=CCC5C6(C)CC(O)C(O[C@@H]7O[C@H](CO)[C@@H](O)[C@H](O)[C@H]7O)C(C)(C(=O)O)C6CCC5(C)C3(CO)CC4)O[C@H](C)[C@H](O)[C@@H]2O)[C@H](O)[C@H](O)[C@H]1O[C@@H]1OC[C@@H](O)[C@H](O)[C@H]1O (stereo partly drawn)
# output inactive

# input Look up activity change, negative = inhibition for this compound: Oc1ccc([C@H]2COc3cc(O)ccc3C2)cc1
# output inactive

---

MEASUREMENT_NOTES: Cell Viability - LYMP2-024 (AID 988);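 note: cells exposed to compound for 24 hr at 37 °C; nearly all actives have a fitted effect of over 60% in size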
EXPERIMENTAL_CONTEXT: LYMP2-024 lymphoblastoid cell viability; series mostly up to 92.2 µM
Inconclusive results are not listed. The source made the active and inactive calls. Calls come from the whole dose curve; as a rule, active = well fitted cell-killing curve with a large enough effect; inconclusive = small, poorly fitted or top-dose-only effect; inactive = flat fitted curve, though single readings scatter.
Outcome field: choose from 1 (yes) for active, 0 (no) for inactive

Example entries begin here.
# input // return assay outcome for Nc1ccn([C@H]2CS[C@@H](CO)O2)c(=O)n1
# output 0 (no)

# input What outcome does the record of this test show for CC1=C(/C=C/C(C)=C/C=C/C(C)=C/CO)C(C)(C)CCC1 ?
# output 1 (yes)

# input // outcome(item) with item = IC(I)I
# output 0 (no)

# input Assay result, entry O=CCCCC=O — outcome?
# output 1 (yes)

# input Tell me the recorded outcome of this test for CC(C)=O .
# output 0 (no)

# input Kindly provide the recorded test outcome for the following compound: O=C(O)CCC(=O)C(=O)O
# output 0 (no)

# input GET /call?item= CCCCCCCC/C=C\CCCCCCCC(=O)O returns the recorded outcome of this test.
# output 0 (no)

Attention now turns to another entry.
# input How did this test come out for CC1=C2[C@@H]([C@H](C)CC[C@H]2/C=C(\C)C(=O)O)[C@H](O)C1 ?
# output 0 (no)

---

TARGET_DESC: Cytochrome P450 2D6 (Homo sapiens)
MEASUREMENT_NOTES: Cytochrome P450 family 2 subfamily D member 6 (CYP2D6) small molecule antagonists: luciferase biochemical (cell-free) qHTS assay (AID 1645840); note: nearly all actives have a fitted effect of over 55% in size
EXPERIMENTAL_CONTEXT: P450-Glo CYP2D6 enzyme, luciferin luminescence, 1 h; series mostly up to 57.4 µM
Records with an inconclusive call do not appear. The source made the active and inactive calls. Calls follow the shape of the dose curve; as a rule, active = well fitted inhibition curve with a large enough effect in the repeat runs; inconclusive = weak or mixed curves; inactive = flat fitted curve, though single readings scatter.
Return exactly one item of true (active), false (inactive)

# input Per the assay record, what outcome was assigned to O=C(O)[C@H]1CCCC[C@H]1C(=O)N1CCc2ccccc2[C@H]1CN1C(=O)c2ccccc2C1=O ?
# output false

# input Call for entry CCc1c(CC(N)=O)c2cc(OCCCP(=O)(O)O)ccc2n1Cc1ccccc1 :
# output false

# input Hi, do you know how Cc1cc(C)c(S(=O)(=O)N(Cc2ccc(-c3cccc(S(C)(=O)=O)c3)cc2)Cc2ccc(C(F)(F)F)o2)c(C)c1 came out in this test?
# output false

# input Status in this test for O=C(c1ccc(C#Cc2cccc(F)c2)cn1)N1CC2CC2C1 (stereo unspecified) ?
# output true

# input Assay result, entry CCOC(=O)c1c(C)nn(-c2cccc([N+](=O)[O-])c2)c1C — outcome?
# output true

// switching to the query compound
# input Check the results log: what was the call for CC(C)Nc1cc(-c2c[nH]c(C(=O)N[C@H](CO)c3cccc(Cl)c3)c2)c(Cl)cn1 ?
# output true

Origin of the recorded values: PubChem BioAssay (NCATS)
